Data credit: PubChem BioAssay (NCATS)

Exercise: for every item that follows, state its recorded Potency.
- TEST_METHOD_NOTES: qHTS Assay for Identification of Small Molecule Antagonists for Thrombopoietin (TPO) Signaling Pathway (AID 918); note: potency is the fitted concentration of half-maximal effect; nearly all actives have a fitted effect of over 60% in size
- EXPERIMENTAL_CONDITIONS: TPO-dependent cell signaling reporter, antagonist mode
- Experimental: NIH Molecular Libraries Screening Centers Network [MLSCN] NIH Chemical Genomics Center [NCGC] […] Cells were maintained at 37 C and 5% CO2in RPMI with 10% fetal bovine serum, 0.5 ng/mL murine IL-3, 100U/ml penicillin and 100 ug/ml streptomycin. […] Following 24 hrs of incubation at 37 C and 5% CO2, 4 uL of Steadylite detector mix (PerkinElmer) was added, the plates incubated at room temperature for 10 min and luminescence was measured for 10 s and 2X binning by a ViewLux detector (Perkin Elmer).
Records with an inconclusive call do not appear. Active and inactive are the calls of the source. Calls come from the whole dose curve; as a rule, active = well fitted inhibition curve with a large enough effect; inconclusive = small, poorly fitted or top-dose-only effect, or effect the other way, or another doubt; inactive = flat fitted curve, though single readings scatter.

Ask: Recorded Potency of Cc1c2ccncc2c(C)c2c1[nH]c1ccccc12 , please.
Result: 10 µM (active)

Ask: Entry to check: C[N+]1(C)[C@@H]2CC[C@H]1CC(OC(=O)c1c[nH]c3ccccc13)C2 (some centres undefined)
Result: 10 µM (active)

Ask: Also check CC(C)(C)c1cc(C=C(C#N)C#N)cc(C(C)(C)C)c1O
Result: 1.58 µM (active)

Ask: One more compound: NC(=O)CI
Result: 3.16 µM (active)

###

- TEST_METHOD_NOTES: qHTS for differential inhibitors of proliferation of Plasmodium falciparum line 3D7 (AID 1876)
- EXPERIMENTAL_CONDITIONS: P. falciparum 3D7 proliferation inhibition; series mostly up to 28.7 µM
Records with an inconclusive call do not appear. Active and inactive are the calls of the source. The call rests on the fitted dose curve; in most records, active means well fitted curve in the direction sought with a large enough effect; inconclusive means small, poorly fitted or top-dose-only effect, or another doubt; inactive means no such curve, though single readings can be large or run the other way.
Classes to choose from: active, inactive

Ask: Dear all, I need the recorded test outcome for NCCc1c[nH]c2ccc(C(N)=O)cc12 , thank you.
Result: inactive

Ask: Request: C#CCN[C@H](C)Cc1ccccc1
Result: inactive

Ask: Please give the result for Ic1ccccc1CNC1C2CCN(CC2)C1C(c1ccccc1)c1ccccc1 (stereo not given) too.
Result: active

Ask: And for CCCN1CC[C@@H]2c3cc(O)ccc3CC[C@@H]21 ?
Result: inactive

Ask: Same for CCCCCCCCCCCCCC(=O)O[C@@H]1[C@@H](C)[C@@]2(O)[C@@H](C=C(CO)C[C@@]3(O)C(=O)C(C)=C[C@@H]23)C2C(C)(C)[C@@]21OC(C)=O (stereo not given in full)
Result: active

###

- EXPERIMENTAL_TARGET: Transient receptor potential cation channel subfamily V member 1 (Homo sapiens)
- TEST_METHOD_NOTES: HTS Assay for Compounds that Act as Enhancers of the Vanilloid Receptor 1 (AID 488979)
- EXPERIMENTAL_CONDITIONS: TRPV1-expressing cells, enhancer of channel activity; series mostly up to 41.7 µM
- From the text: The transient receptor potential ion channel, family V, number 1, (TRPV1) is one of the most important molecular transducers of painful stimuli and a potential target for analgesic drug development. […] The amount of accumulated calcium is precisely quantified using the FDSS kinetic reader and the calcium dye. […] The FDSS reader has a standard filter set capable of measuring calcium bound Fluo-8 (ex=480 and em=520 nm).
Results filed as inconclusive are left out. Calls of active or inactive are those of the source. Calls come from the whole dose curve; as a rule, active = well fitted curve in the direction sought with a large enough effect; inconclusive = small, poorly fitted or top-dose-only effect, or effect the other way, or another doubt; inactive = no such curve, though single readings can be large or run the other way.
MEASURED_ENDPOINT: outcome

Some entries whose results are on file:
molecule=CC(C)NP(=O)(NC(C)C)OP(=O)(NC(C)C)NC(C)C measured_endpoint=outcome experimental_result=inactive
molecule=Clc1ccc(N2CC3CCC(C2)N3)nn1 measured_endpoint=outcome experimental_result=inactive
molecule=C[N+](C)(C)CC#CCN1CCCC1=O measured_endpoint=outcome experimental_result=inactive
molecule=C[N+]1(C)CCN(c2ccccc2)CC1 measured_endpoint=outcome experimental_result=inactive

Ask: Quick check: outcome of COc1ccc2c(c1OC)C(=O)OC2C1c2cc3c(cc2CCN1C)OCO3 (centres undefined) ?
Result: inactive

Ask: Repeat with NC(N)=Nc1ccc2[nH]c3c(c2c1)C[C@@]1(O)[C@H]2Cc4ccc(O)c5c4[C@@]1(CCN2CC1CC1)[C@H]3O5
Result: inactive

Ask: Similarly, N#CC(C#N)=Cc1cc(O)c(O)c(O)c1 ?
Result: inactive

Ask: Try NC(Cc1ccc(N(CCCl)CCCl)cc1)C(=O)O (centres undefined) next.
Result: inactive

Ask: Now the molecule NCCc1c[nH]c2ccc(C(N)=O)cc12
Result: inactive
